FYI, the data here is from paper PMC11295495.

This listing pairs molecules with measured IC50.
Molecular target: a9a10 nAChR (Homo sapiens, UniProt Q9GZZ6+Q9UGM1)
Sequence (Q9UGM1 23-479): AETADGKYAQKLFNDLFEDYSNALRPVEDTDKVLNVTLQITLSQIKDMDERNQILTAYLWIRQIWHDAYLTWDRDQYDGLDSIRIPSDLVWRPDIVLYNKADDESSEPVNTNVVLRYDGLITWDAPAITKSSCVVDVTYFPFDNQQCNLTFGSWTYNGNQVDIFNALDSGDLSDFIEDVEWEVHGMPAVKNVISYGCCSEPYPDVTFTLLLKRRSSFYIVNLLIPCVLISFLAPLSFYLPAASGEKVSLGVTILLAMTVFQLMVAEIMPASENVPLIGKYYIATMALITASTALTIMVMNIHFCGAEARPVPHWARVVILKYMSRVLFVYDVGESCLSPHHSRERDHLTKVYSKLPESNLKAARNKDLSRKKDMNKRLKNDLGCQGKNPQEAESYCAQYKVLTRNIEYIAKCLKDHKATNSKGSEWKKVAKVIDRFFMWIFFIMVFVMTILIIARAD
Sequence (Q9GZZ6 25-450): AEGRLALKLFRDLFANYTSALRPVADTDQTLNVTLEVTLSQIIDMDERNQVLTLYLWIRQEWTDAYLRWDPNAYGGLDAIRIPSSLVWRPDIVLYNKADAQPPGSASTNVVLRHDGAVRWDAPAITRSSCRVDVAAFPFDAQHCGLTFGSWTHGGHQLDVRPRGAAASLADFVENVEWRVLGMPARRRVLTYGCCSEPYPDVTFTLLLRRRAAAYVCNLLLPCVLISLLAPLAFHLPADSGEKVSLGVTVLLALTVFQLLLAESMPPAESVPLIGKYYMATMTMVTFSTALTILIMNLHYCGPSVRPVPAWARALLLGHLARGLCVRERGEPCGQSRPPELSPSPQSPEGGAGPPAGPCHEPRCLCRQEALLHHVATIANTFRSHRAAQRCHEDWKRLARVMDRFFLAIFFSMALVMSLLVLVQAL
Test: two-electrode voltage-clamp in Xenopus oocytes, inhibition of […] ACh responses
Format: cell-based
Use µM as the unit, but write only the number.

Request: What IC50 value was documented for this molecule, CC[N+]1(CC)CCN(c2cccc(C#N)c2)CC1 [mCN-diEPP] ?
Result: 17.1

Request: Param item: CN1CCC[C@H]1c1cccnc1 [nicotine]
Result: 437
